# Measurement Notes: Octanol-water partition coefficient, log P by RP-HPLC method
# Assay type: physicochemical
Measurement Kind: logP
Answers are plain numbers.

Query Smiles	Result Value
O=C1C(N2CCCC2)=NN(c2ccc(Cl)cc2)CN1c1ccccc1Cl	4.6
O=C1C(N2CCCC2)=NN(c2ccccc2)CN1c1ccccc1Cl	4
COc1cccc2c1C(=O)c1c(O)c3c(c(O)c1C2=O)C[C@@](O)(C(=O)CO)C[C@@H]3O[C@H]1C[C@H](N)[C@H](O)[C@H](C)O1	0.71
O=C1C(N2CCCCC2)=NN(c2ccccc2)CN1c1ccccc1Cl	4.6
O=C1C(N2CCOCC2)=NN(c2ccccc2)CN1c1ccccc1Cl	3.5
O=C1C(N2CCCCC2)=NN(c2ccc(Cl)cc2)CN1c1ccccc1Cl	5
O=C1C(N2CCOCC2)=NN(c2ccc(Cl)cc2)CN1c1ccccc1Cl	4
CN(C)C1=NN(c2ccc(Cl)cc2)CN(c2ccccc2Cl)C1=O	4.2

Now examine the next entry.
Req: Recorded logP of CN(C)C1=NN(c2ccccc2)CN(c2ccccc2Cl)C1=O , please.
Resp: 3.6

* * *

Task for the reader: assign each of the following compounds its reported GI50 at 72 h.
# Measurement Notes: Antiproliferative activity against HUVEC after 72 hrs by resazurin dye reduction assay
# Type: cell-based
# Test Context: human, HUVEC cells
Express the reported value numerically, then name its unit.

Query Smiles	Measurement Kind	Result Value
CN(C)C1=NN(c2ccc(Cl)cc2)CN(c2ccccc2Cl)C1=O	GI50 at 72 h	16.1 µg/mL
COc1cccc2c1C(=O)c1c(O)c3c(c(O)c1C2=O)C[C@@](O)(C(=O)CO)C[C@@H]3O[C@H]1C[C@H](N)[C@H](O)[C@H](C)O1	GI50 at 72 h	0.1 µg/mL
Cc1ccc(NC(=O)c2ccc(CN3CCN(C)CC3)cc2)cc1Nc1nccc(-c2cccnc2)n1	GI50 at 72 h	10.9 µg/mL

# context switch: different compound, same GI50 at 72 h
Req: Form field: reported GI50 at 72 h of O=C1C(N2CCCC2)=NN(c2ccccc2)CN1c1ccccc1Cl
Resp: 40.9 µg/mL
